# ASSAY SYSTEM: T1, human Mdm2 1-125 (human)
# T1 construct: Mdm2, human, residues 1-125; the stretch after the TEV site ENLYFQG of the fusion protein; source: E. coli BL21 (DE3) Rosetta T1R, purified (Ni-NTA, gel filtration)
# T1 sequence (chain, as listed by the source): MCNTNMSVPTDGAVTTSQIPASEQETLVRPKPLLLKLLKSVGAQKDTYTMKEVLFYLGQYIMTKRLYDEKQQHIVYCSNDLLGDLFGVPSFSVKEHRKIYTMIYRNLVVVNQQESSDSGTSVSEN
# ASSAY DETAILS: fluorescence polarisation; competitive fluorescence anisotropy: unlabelled peptide titrated against 250 nM Mdm2 (1-125) with 50 nM FAM-labelled 12/1 peptide (FAM-…-NH2); PBS pH 7.4, 0.001% Tween-20; apparent Kd, geometric means
# MEASUREMENT SETUP: both partners purified
pKd: −log10 of the molar value. Positions of bridges follow the written chain, without caps; N, C: chain ends. Non-standard residues stand in square brackets, D forms with d. Primed or numbered codes have the meaning given here. Lys(N3) = [N-]=[N+]=NCCCC[C@H](N)C(=O)O; R8 = C=CCCCCCC[C@@](C)(N)C(=O)O; S5 = C=CCCC[C@](C)(N)C(=O)O; Cba′ = not defined here; βAla = NCCC(=O)O
MEASURED ATTRIBUTE: pKd

Ac-[Lys(N3)][βAla]LTF[R8]EYWAE[Cba′][S5]SAA-NH2 (staple 6-13; reading uncertain) [AZIDE-ATSP-7041 (Q9E)]	7.46
Ac-[Lys(N3)][βAla]LTF[R8]EEWAQ[Cba′][S5]SAA-NH2 (staple 6-13; reading uncertain) [AZIDE-ATSP-7041 (Y6E)]	8.29
